The measurements presented in this section are drawn from PubChem BioAssay AID624129.

Recorded IC50 for the following compounds
- tgt: C-X-C chemokine receptor type 6 (Homo sapiens) (UniProt O00574)
- Sequence (O00574 whole entry, looked up): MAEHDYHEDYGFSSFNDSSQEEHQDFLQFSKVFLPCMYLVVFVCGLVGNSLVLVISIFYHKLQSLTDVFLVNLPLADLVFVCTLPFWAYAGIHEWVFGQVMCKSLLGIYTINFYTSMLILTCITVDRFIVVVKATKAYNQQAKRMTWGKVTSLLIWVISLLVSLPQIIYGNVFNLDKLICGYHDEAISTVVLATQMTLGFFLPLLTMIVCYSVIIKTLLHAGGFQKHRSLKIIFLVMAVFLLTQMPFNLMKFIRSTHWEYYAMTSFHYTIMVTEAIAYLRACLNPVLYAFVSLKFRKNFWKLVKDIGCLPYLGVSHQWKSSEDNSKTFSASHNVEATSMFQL
- assay-explanation: potency against CXCR6 with APJ panel – cell-based, beta-arrestin, DiscoveRx, uHTS hits, dose response (AID 624129)
- condition-description: CXCR6 beta-arrestin (DiscoveRx) antagonist cell assay, CXCR6, run 2, dose range 2
endpoint-name: IC50 (µM)

[[record]]
compound = "O=C(Nc1ccccc1)c1nnsc1S(=O)c1ccc(Cl)cc1 (configuration not stated)"
readout_number = 11.2

[[record]]
compound = "CC(C)c1ccc(O)c(NC(=S)NC(=O)c2cccnc2)c1"
readout_number = 8.67

[[record]]
compound = "CCOc1ccccc1NC(=O)c1nc(S(=O)(=O)Cc2ccccc2)ncc1Cl"
readout_number = 10.7

[[record]]
compound = "O=C(C#Cc1ccccc1)c1ccccc1"
readout_number = 11.6

[[record]]
compound = "CC1(C)CC(=O)C2=C(C1)OC1=C(C(=O)CC(C)(C)C1)C2c1ccc(O)cc1O"
readout_number = 10.8

[[record]]
compound = "Fc1ccc(NC(=S)Nc2nccs2)cc1"
readout_number = 13.3

[[record]]
compound = "Cn1cnc([N+](=O)[O-])c1S(=O)(=O)c1cccc(Cl)c1"
readout_number = 11.9


* * *

# pIC50 annotations
- tgt: Apelin receptor (Homo sapiens) (UniProt P35414)
- assay-explanation: potency against CXCR6 with APJ panel – cell-based, beta-arrestin, DiscoveRx, uHTS hits, dose response (AID 624129)
- condition-description: CXCR6 beta-arrestin (DiscoveRx) antagonist cell assay, APJ, dose range 1, mean IC50 across replicates
pIC50: −log10 of the molar value.
endpoint-name: pIC50

[[record]]
compound = "O=C(Nc1nccs1)c1sc2cc(Cl)ccc2c1Cl"
endpoint_name = "pIC50"
inequality_operator = "="
readout_number = 4.33

[[record]]
compound = "NNc1nc(-c2ccccc2)cc(-c2ccccc2O)n1"
endpoint_name = "pIC50"
inequality_operator = "="
readout_number = 5.07

[[record]]
compound = "Cc1ccc(OCCN2C(=O)c3ccccc3C2=O)c([N+](=O)[O-])c1"
endpoint_name = "pIC50"
inequality_operator = "="
readout_number = 5.24

[[record]]
compound = "O=C1c2sc3nc4ccccc4n3c2C(=O)N1c1ccccc1Cl"
endpoint_name = "pIC50"
inequality_operator = "="
readout_number = 4.74

[[record]]
compound = "Cc1c(Cl)sn(-c2ccc(Cl)cc2)c1=O"
endpoint_name = "pIC50"
inequality_operator = "="
readout_number = 4.64

[[record]]
compound = "CC(=O)OCCCNc1cc(Sc2ccc(C)cc2)c2nonc2c1[N+](=O)[O-]"
endpoint_name = "pIC50"
inequality_operator = "<"
readout_number = 4.10

[[record]]
compound = "CC(=O)OCCNc1cc(SCc2ccco2)c2nonc2c1[N+](=O)[O-]"
endpoint_name = "pIC50"
inequality_operator = "="
readout_number = 4.73

[[record]]
compound = "C=C1C(=O)C23CCC4C(C)(C(=O)OC)CCCC4(C)C2CCC1(O)C3 (configuration not stated)"
endpoint_name = "pIC50"
inequality_operator = "="
readout_number = 5.08

[[record]]
compound = "CC(C)(C)c1ccc(CN2N=Nc3ccccc3S2(=O)=O)cc1"
endpoint_name = "pIC50"
inequality_operator = "="
readout_number = 4.59

[[record]]
compound = "COc1ccc(C)c(-n2c(=O)n(Cc3ccccc3)c(=O)c3[nH]cnc32)c1"
endpoint_name = "pIC50"
inequality_operator = "="
readout_number = 4.88

[[record]]
compound = "COc1ccc(NC(=O)/C(Cl)=C(/Cl)S(=O)Cc2ccccc2)cn1 (configuration not stated)"
endpoint_name = "pIC50"
inequality_operator = "="
readout_number = 4.65

[[record]]
compound = "CC(C)N=C1CCCC1C(=S)SSC(=S)C1CCCC1=NC(C)C (configuration not stated)"
endpoint_name = "pIC50"
inequality_operator = "="
readout_number = 4.63

[[record]]
compound = "O=C1C=CC(=O)N1Cc1ccccc1"
endpoint_name = "pIC50"
inequality_operator = "="
readout_number = 4.96

[[record]]
compound = "Cc1cccnc1Nc1nc(-c2ccccn2)cs1"
endpoint_name = "pIC50"
inequality_operator = "="
readout_number = 5.86

[[record]]
compound = "CCCCOc1ccc(C(=O)NNC(=S)NC(=O)CC)cc1"
endpoint_name = "pIC50"
inequality_operator = "="
readout_number = 4.81

[[record]]
compound = "CCOc1ccc(N(CC(=O)N/N=C/c2ccccn2)S(=O)(=O)c2ccc(Cl)cc2)cc1"
endpoint_name = "pIC50"
inequality_operator = "="
readout_number = 4.85

[[record]]
compound = "C=C1CC(COc2cc(=O)oc3ccccc23)(c2ccccc2)OC1=O (configuration not stated)"
endpoint_name = "pIC50"
inequality_operator = "="
readout_number = 5.00

[[record]]
compound = "CC(Oc1ccc(Br)cc1)C(=O)Nc1nc(-c2ccccn2)cs1 (configuration not stated)"
endpoint_name = "pIC50"
inequality_operator = "="
readout_number = 5.23

[[record]]
compound = "CCS(=O)(=O)c1ncc(Cl)c(C(=O)Nc2ccc(S(=O)(=O)N3CCC(C)CC3)cc2)n1"
endpoint_name = "pIC50"
inequality_operator = "="
readout_number = 5.15

[[record]]
compound = "COc1ccc(CCN2C(=O)C=CC2=O)cc1OC"
endpoint_name = "pIC50"
inequality_operator = "="
readout_number = 4.68

[[record]]
compound = "O=C(Cn1sc2ccccc2c1=O)NC12CC3CC(CC(C3)C1)C2"
endpoint_name = "pIC50"
inequality_operator = "="
readout_number = 5.49

[[record]]
compound = "COc1ccc(-c2csc(Cc3nc(O)cs3)n2)cc1"
endpoint_name = "pIC50"
inequality_operator = "="
readout_number = 5.30

[[record]]
compound = "CCC(=O)OCOc1ccc(/C=C2/CCC(CN(C)C)C2=O)cc1 (configuration not stated)"
endpoint_name = "pIC50"
inequality_operator = "="
readout_number = 4.77

[[record]]
compound = "CCOc1ccc(NC(=O)CN(C)S(=O)(=O)c2cccs2)cc1"
endpoint_name = "pIC50"
inequality_operator = "<"
readout_number = 4.10

[[record]]
compound = "S=C(NCCCN1CCOCC1)Nc1ccc(Cl)cc1"
endpoint_name = "pIC50"
inequality_operator = "="
readout_number = 4.84

[[record]]
compound = "O=C1C=CC2(C=C1)O[C@H](Cc1ccccc1)[C@@H](Cc1ccccc1)O2"
endpoint_name = "pIC50"
inequality_operator = "="
readout_number = 5.08

[[record]]
compound = "O=c1oc2ccccc2c(Cl)c1CN1CCCCC1"
endpoint_name = "pIC50"
inequality_operator = "="
readout_number = 4.75

[[record]]
compound = "O=[N+]([O-])c1c(Nc2ccc(O)cc2)cc(Cl)c2nonc12"
endpoint_name = "pIC50"
inequality_operator = "="
readout_number = 5.06

[[record]]
compound = "CCOc1ccc(NCC(=O)c2ccc(C)cc2)cc1"
endpoint_name = "pIC50"
inequality_operator = "="
readout_number = 4.61

[[record]]
compound = "CCCCCCCCn1sccc1=O"
endpoint_name = "pIC50"
inequality_operator = "="
readout_number = 5.09

[[record]]
compound = "Cc1ccnc(N2C(=O)c3cccc4c([N+](=O)[O-])ccc(c34)C2=O)c1"
endpoint_name = "pIC50"
inequality_operator = "="
readout_number = 5.30

[[record]]
compound = "CC1(C)CC(=O)C(C=Nc2ccc(C(=O)c3ccccc3)cc2N=CC2=C(O)CC(C)(C)CC2=O)=C(O)C1"
endpoint_name = "pIC50"
inequality_operator = "="
readout_number = 4.22

[[record]]
compound = "CCN(CC)CC(C)(C)C(=O)/C=C/c1ccc(/C=C/C(=O)C(C)(C)CN(CC)CC)cc1"
endpoint_name = "pIC50"
inequality_operator = "="
readout_number = 5.39

[[record]]
compound = "CCN(c1ccccc1)S(=O)(=O)c1ccc(NC(=O)c2nc(S(C)(=O)=O)ncc2Cl)cc1"
endpoint_name = "pIC50"
inequality_operator = "="
readout_number = 4.80

[[record]]
compound = "COC(=O)[C@@H]1[C@@H](C#N)C2(c3ccccc3-c3ccccc32)N(c2ccc(Cl)cc2)N1C#N"
endpoint_name = "pIC50"
inequality_operator = "<"
readout_number = 4.10

[[record]]
compound = "COC(CNC(=O)c1cc(C(=O)c2c(-c3c(Cl)cccc3Cl)noc2C)c[nH]1)OC"
endpoint_name = "pIC50"
inequality_operator = "="
readout_number = 5.03

[[record]]
compound = "CCOC(=O)CSc1cccc2cccnc12"
endpoint_name = "pIC50"
inequality_operator = "="
readout_number = 5.26

[[record]]
compound = "CCCCCCN1C=C/C(=C\\C=C(C#N)C#N)c2ccccc21"
endpoint_name = "pIC50"
inequality_operator = "="
readout_number = 4.45

[[record]]
compound = "O=C(Nc1nc2c(F)cc(F)cc2s1)c1ccccn1"
endpoint_name = "pIC50"
inequality_operator = "="
readout_number = 5.80

[[record]]
compound = "CC(=O)/C(=N\\Nc1ccc(Cl)cc1Cl)Sc1cccc2cccnc12"
endpoint_name = "pIC50"
inequality_operator = "="
readout_number = 5.48

[[record]]
compound = "Cc1ccccc1Oc1cc(-n2ncc(Cl)c(Cl)c2=O)ncn1"
endpoint_name = "pIC50"
inequality_operator = "="
readout_number = 5.34

[[record]]
compound = "C=C1C(=O)O[C@@H]2C[C@@H](C)[C@@H]3C=CC(=O)[C@@]3(C)[C@@H](OC(=O)CC(=O)O[C@H]3[C@@H]4C(=C)C(=O)O[C@@H]4C[C@@H](C)[C@@H]4C=CC(=O)[C@]43C)[C@H]12"
endpoint_name = "pIC50"
inequality_operator = "="
readout_number = 5.30

